- Method: qHTS assay to identify small molecule antagonists of the estrogen receptor alpha (ER-alpha) signaling pathway using the BG1 cell line (AID 743080);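 further: BG1 cells stimulated with 17beta-estradiol alongside compound; nearly all actives have a fitted effect of over 25% in size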; further: potency means the concentration at half of the fitted maximal effect
- Condition Label: BG1Luc4E2 ERE-luciferase antagonist mode, luminescence; series mostly up to 70.3 µM
Records with an inconclusive call do not appear. Active and inactive are the calls of the source. The call rests on the fitted dose curve.
Measure: Potency

Answered cases to consult:
CCCCN(CCCC)C(=S)[S-].CCCCN(CCCC)C(=S)[S-].[Ni+2]: inactive
CCCCN(CCCC)C(=S)S: inactive
Cc1ccc2cc3c(ccc4ccccc43)c3c2c1CC3: 546 nM (active)
COC(=O)/C=C(\C)OP(=O)(OC)OC: inactive
C[C@H]1[C@H](c2ccc(Cl)cc2)SC(=O)N1C(=O)NC1CCCCC1: 61100 nM (active)

Task item: Supply recorded Potency for CC(Cc1ccc(O)cc1)NCC(O)c1cc(O)cc(O)c1 (stereo not drawn) here.
Reply: inactive

Task item: Supply recorded Potency for CC(C)NCC(O)c1ccccc1Cl (stereo not drawn) here.
Reply: inactive

Task item: Supply recorded Potency for `[O]=[Cr](=[O])([OH])[O][Cr](=[O])(=[O])[OH]` here.
Reply: inactive

Task item: Supply recorded Potency for `C=C(C)C(=O)[O][Sn]([CH2]CCC)([CH2]CCC)[CH2]CCC` here.
Reply: 344 nM (active)

Task item: Supply recorded Potency for `ClCBr` here.
Reply: inactive

Task item: Supply recorded Potency for CC(Cc1ccc2c(c1)OCO2)NO (stereo not drawn) here.
Reply: inactive

Task item: Supply recorded Potency for `CCN(CC)CCN1C(=O)CN=C(c2ccccc2F)c2cc(Cl)ccc21` here.
Reply: inactive

Task item: Supply recorded Potency for CC1CN1 (stereo not drawn) here.
Reply: inactive

====

- Method: qHTS assay to identify small molecule agonists of the estrogen receptor beta (ER-beta) signaling pathway - cell viability counter screen (AID 1259380); further: nearly all actives have a fitted effect of over 30% in size; further: potency means the concentration at half of the fitted maximal effect
- Condition Label: ER-beta-bla HEK293T viability, CellTiter-Glo luminescence, 16 h; series mostly up to 92.4 µM
Records with an inconclusive call do not appear. The source made the active and inactive calls. Calls follow the shape of the dose curve; as a rule, active = well fitted cell-killing curve with a large enough effect in the repeat runs; inconclusive = weak or mixed curves, or effect the other way; inactive = flat fitted curve, though single readings scatter.
Measure: Potency

O=Cc1ccccc1: inactive
Cc1ccn2nc(S(=O)(=O)Nc3c(F)cccc3F)nc2n1: inactive
CCN(CC)Cc1nccn1-c1ccc([N+](=O)[O-])cc1C(=O)c1ccccc1Cl: inactive
CCC[CH2][Sn]([CH2]CCC)([CH2]CCC)[CH2]CCC: 27.3 µM (active)
Cc1c([N+](=O)[O-])c(C)c([N+](=O)[O-])c(C(C)(C)C)c1[N+](=O)[O-]: 27.3 µM (active)
CC(=O)[O][Sn]([c]1ccccc1)([c]1ccccc1)[c]1ccccc1: 0.137 µM (active)
O=C(Nc1ccc(F)cc1F)c1cccnc1Oc1cccc(C(F)(F)F)c1: inactive
Clc1cc(Cl)c(-c2cc(Cl)c(Cl)cc2Cl)cc1Cl: inactive
CCC(OC(C)=O)C(CC(C)NC)(c1ccccc1)c1ccccc1 (stereo unspecified): 49 µM (active)
O=S1OCC2C(CO1)C1(Cl)C(Cl)=C(Cl)C2(Cl)C1(Cl)Cl (stereo unspecified): 48.5 µM (active)

Now let's try a different one.
Task item: Supply recorded Potency for `O=[N+]([O-])c1ccc(CCl)cc1` here.
Reply: inactive

====

- Method: A CellTox Green Cytotoxicity Assay to monitor cytotoxicity in HepG2 cells - 8 hour (AID 1224890); further: nearly all actives have a fitted effect of over 45% in size
- Condition Label: CellTox Green fluorescence; series mostly up to 76.8 µM
Inconclusive results are not listed. Calls of active or inactive are those of the source. The call rests on the fitted dose curve; in most records, active means well fitted activation curve with a large enough effect in the repeat runs; inconclusive means weak or mixed curves; inactive means flat fitted curve, though single readings scatter.
Hi! Could you answer with just one of these? label 1 = active, label 0 = inactive

Recorded results for 3 compounds are shown here.
CCCCCCCc1ccc(O)cc1: label 1
CNN: label 0
CC(Cc1ccc(OCC(=O)O)cc1)NCC(O)c1csc(C(F)(F)F)n1 (configuration not stated): label 0

Task item: Could you check what this test reported for `O=C(N[C@H]1N=C(c2ccccc2F)c2cccc3c2N(CC3)C1=O)c1cc2ccccc2[nH]1` ?
Reply: label 0

Task item: Could you check what this test reported for `COP(=O)(OC)O/C(=C\Cl)c1cc(Cl)c(Cl)cc1Cl` ?
Reply: label 0

Task item: Could you check what this test reported for `Brc1cccc(-c2ccccc2)c1` ?
Reply: label 0

Task item: Could you check what this test reported for `O=S(=O)(O)F` ?
Reply: label 0

====

- Method: qHTS assay to identify small molecule agonists of H2AX - cell viability counter screen (AID 1224847); further: nearly all actives have a fitted effect of over 30% in size; further: potency means the concentration at half of the fitted maximal effect
- Condition Label: CHO-K1 viability, CellTiter-Glo luminescence, 3 h; series mostly up to 154 µM
Results filed as inconclusive are left out. Calls of active or inactive are those of the source. Calls follow the shape of the full dose curve.
Measure: Potency

Answered cases to consult:
COc1cnc(OC)n2nc(NS(=O)(=O)c3c(OCC(F)F)cccc3C(F)(F)F)nc12: inactive
O.O.O.O=C([O-])[C@H]([O-])[C@@H]([O-])C(=O)[O-].O=C([O-])[C@H]([O-])[C@@H]([O-])C(=O)[O-].[K+].[K+].[Sb+3].[Sb+3]: inactive
CCC[CH2][Sn]([CH2]CCC)([CH2]CCC)[O][Sn]([CH2]CCC)([CH2]CCC)[CH2]CCC: 278 nM (active)
CCCCCON=O: inactive

Task item: Supply recorded Potency for `N#Cc1ccc(N(CC(N)=O)CC(F)(F)F)cc1C(F)(F)F` here.
Reply: inactive

====

- Method: qHTS assay to identify small molecule agonists of the RXR signaling pathway - cell viability counter screen (AID 1159529); further: nearly all actives have a fitted effect of over 50% in size; further: potency means the concentration at half of the fitted maximal effect
- Condition Label: RXR-alpha-bla HEK293T viability, CellTiter-Glo, 16 h; series mostly up to 76.8 µM
Results filed as inconclusive are left out. The source made the active and inactive calls. The call rests on the fitted dose curve; in most records, active means well fitted cell-killing curve with a large enough effect in the repeat runs; inconclusive means weak or mixed curves, or effect the other way; inactive means no such curve, though single readings can be large or run the other way.
Measure: Potency

CC[N+]1(CC)CCC(OC(=O)C(O)(c2ccccc2)c2ccccc2)C1 (stereo not given): inactive
Cc1ccc2cc3c(ccc4ccccc43)c3c2c1CC3: inactive
CCN(CC)C(=S)S: 19.4 µM (active)
O=c1[nH]c2cc(Cl)ccc2n1C1CCNCC1: inactive

Now let's try a different one.
Task item: Supply recorded Potency for `O=S(=O)(O)F` here.
Reply: inactive

====

- Method: qHTS assay to identify small molecule antagonists of the androgen receptor (AR) signaling pathway - cell viability counter screen (AID 743033; further: on the % scale 0 is the no-effect control and ±100 the full control effect; nearly all actives have a fitted effect of over 45% in size)
- Condition Label: AR-bla HEK293 viability, CellTiter-Glo luminescence, 16 h; series mostly up to 58.5 µM
Results filed as inconclusive are left out. Active and inactive are the calls of the source. Calls come from the whole dose curve; as a rule, active = well fitted cell-killing curve with a large enough effect in the repeat runs; inconclusive = weak or mixed curves; inactive = no such curve, though single readings can be large or run the other way.
Hi! Could you answer with just one of these? yes (1) for active, no (0) for inactive

Recorded results for 5 compounds are shown here.
CN1CCc2cc3c(cc2C1O)OCO3 (centres undefined): no (0)
O=NN(CCO)CCO: no (0)
CCCCCCCc1ccc(O)cc1: no (0)
CC(=O)O.CC(=O)O.CC(=O)O.CC(=O)O.CC(=O)O.CC(=O)O.CC(=O)O.O.O.[Cr].[Cr].[Cr]: no (0)
O.O.O.O.O.O.O.O=S(=O)([O-])[O-].[Co+2]: no (0)

Alright, here's another compound for you.
Task item: Could you check what this test reported for `C#CC1(O)CCCCC1` ?
Reply: no (0)

====

- Method: qHTS assay for small molecule agonists of the antioxidant response element (ARE) signaling pathway (AID 743202); on activation: on the % scale 0 is the no-effect control and ±100 the full control effect
- Condition Label: HepG2 ARE-bla reporter, beta-lactamase FRET, 16 h; series mostly up to 73.3 µM
Results filed as inconclusive are left out. The source made the active and inactive calls. Calls come from the whole dose curve; as a rule, active = well fitted activation curve with a large enough effect in the signal ratio in the repeat runs (not every such curve was filed as active); inconclusive = weak or mixed curves, or effect the other way; inactive = no such curve, though single readings can be large or run the other way; the % refers to the signal ratio.
Hi! Could you answer with just one of these? true (1) (active), false (0) (inactive)

Task item: Could you check what this test reported for `CO/N=C(/C1=NOCCO1)c1ccccc1Oc1ncnc(Oc2ccccc2Cl)c1F` ?
Reply: true (1)

Task item: Could you check what this test reported for `Clc1cc(Cl)c(-c2cc(Cl)c(Cl)cc2Cl)cc1Cl` ?
Reply: false (0)

Task item: Could you check what this test reported for `O=[N+]([O-])c1ccccc1-c1ccccc1` ?
Reply: false (0)

Task item: Could you check what this test reported for `Brc1ccc(Oc2ccc(Br)cc2Br)c(Br)c1` ?
Reply: false (0)

Task item: Could you check what this test reported for `COC(=O)N(OC)c1ccccc1COc1ccn(-c2ccc(Cl)cc2)n1` ?
Reply: true (1)

Task item: Could you check what this test reported for `Oc1cccc(Cl)c1Cl` ?
Reply: false (0)

Task item: Could you check what this test reported for `CCCN` ?
Reply: false (0)

Task item: Could you check what this test reported for CC[N+]1(CC)CCC(OC(=O)C(O)(c2ccccc2)c2ccccc2)C1 (stereo not drawn) ?
Reply: false (0)

Task item: Could you check what this test reported for `c1cc[n+]2c(c1)-c1cccc[n+]1CC2` ?
Reply: true (1)

Task item: Could you check what this test reported for CCOP(=S)(NC(C)C)Oc1ccccc1C(=O)OC(C)C (stereo not drawn) ?
Reply: true (1)

Task item: Could you check what this test reported for `COCCC#N` ?
Reply: false (0)

Task item: Could you check what this test reported for `CCCCCON=O` ?
Reply: false (0)

Task item: Could you check what this test reported for CN1C2CCC(C)(C)C1CC(OC(=O)C(O)(c1cccs1)c1cccs1)C2 (stereo not drawn) ?
Reply: false (0)
